Consider the following molecules and their measured IC50 readings.
- tgt: Recombinant human HSD17B13 enzyme (Homo sapiens (Human), UniProt Q7Z5P4)
- Sequence (Q7Z5P4 20-300): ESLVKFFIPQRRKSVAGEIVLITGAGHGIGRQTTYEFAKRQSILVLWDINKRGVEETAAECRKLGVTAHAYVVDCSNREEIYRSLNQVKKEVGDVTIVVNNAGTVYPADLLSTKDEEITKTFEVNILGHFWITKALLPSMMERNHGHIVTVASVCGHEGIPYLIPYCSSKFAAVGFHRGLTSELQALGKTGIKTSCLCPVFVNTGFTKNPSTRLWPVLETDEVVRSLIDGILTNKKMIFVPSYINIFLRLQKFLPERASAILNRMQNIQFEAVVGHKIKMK
- protocol_description: HSD17b13 NAD(P)H-Glo Biochemical Assay
- run_conditions: 50 uM estradiol, 1 mM NAD+; read-out: HSD17β13 IC50

For orientation, consider the following solved cases.
>  <molecule>
CS(=O)(=O)N1CCN(c2cc3cnn(-c4cc(O)c(F)c(C(F)(F)F)c4)c3cn2)CC1 [Compound 21.41]

>  <IC50>
0.1 to 1 µM

$$$$
>  <molecule>
CS(=O)(=O)N1CCC(Oc2ccc3c(cnn3-c3cc(O)c(F)c(F)c3)c2)CC1 [Compound 25.01]

>  <IC50>
1 to 30 µM

$$$$

# evaluate next
Form: molecule = CS(=O)(=O)N1CCN(c2cc3cn(-c4ccc(Cl)c(O)c4)nc3cn2)CC1 [Compound 19.15] ; IC50 = 1 to 30 µM

----------
- tgt: Recombinant human HSD17B13 enzyme (Homo sapiens (Human), UniProt Q7Z5P4)
- protocol_description: HSD17b13 NAD(P)H-Glo Biochemical Assay
- run_conditions: 50 uM estradiol, 1 mM NAD+; read-out: HSD17β13 IC50
- Experimental: Recombinant human HSD17B13 enzyme. Substrate: estradiol (Sigma β-Estradiol E8875), 100 mM in DMSO. […] Assay buffer final concentration: 20 mM Tris pH7.4 with 0.002% Tween-20 and 0.02% BSA. […] Enzymatic activity detected by NAD(P)H-Glo™ Detection System (Promega G9062). […] HSD17b13 enzyme was diluted in 1× assay buffer to the desired enzyme concentration based on the specific activity of the enzyme lot. […] After incubating for 1 hour at RT, luminescence was measured.
Consider the following compounds and their measured IC50 readings.

>  <compound>
CC(=O)N1CC(Oc2ccc3c(cnn3-c3cc(O)c(F)c(F)c3)c2)C1

>  <tgt>
Recombinant human HSD17B13 enzyme (Homo sapiens (Human), UniProt Q7Z5P4)

>  <IC50>
100 to 1000 nM

$$$$

Form: compound = Cc1nn(-c2cc(C(F)(F)F)c(F)c(O)c2F)c2ccc(N(C)C3CCOCC3)nc12 ; IC50 = < 100 nM

Form: compound = COC1CCN(c2cc3c(C)nn(-c4cc(C(F)(F)F)c(F)c(O)c4F)c3cn2)C2(CC2)C1 (stereo not drawn) ; IC50 = < 100 nM

Form: compound = CN(C)S(=O)(=O)c1ccc(-c2ccc3c(cnn3-c3ccc(F)c(O)c3)c2)cc1 ; IC50 = 100 to 1000 nM

Form: compound = CS(=O)(=O)N1CCN(c2cc3cn(-c4ccc(F)c(O)c4F)nc3cn2)CC1 ; IC50 = 1000 to 30000 nM

Form: compound = Oc1ccc(-c2ccc3c(cnn3-c3cc(O)c(F)c(F)c3)c2)c(Cl)c1 ; IC50 = 100 to 1000 nM

Form: compound = CN(c1ccc2c(c1)c(N)nn2-c1cc(C(F)(F)F)c(F)c(O)c1F)C1CCOCC1 ; IC50 = 100 to 1000 nM

Form: compound = COc1cccc(-c2ccc3c(cnn3-c3ccc(F)c(O)c3)c2)c1 ; IC50 = 1000 to 30000 nM

Form: compound = Oc1cc(-n2ncc3cc(-c4ccc(Cl)c(O)c4)ccc32)ccc1F ; IC50 = 100 to 1000 nM
